Documented binding signal across a set of sequences
Target: GST-Co-NF-kB (Capsaspora owczarzaki, UniProt F1ARL5 200-546)
Sequence: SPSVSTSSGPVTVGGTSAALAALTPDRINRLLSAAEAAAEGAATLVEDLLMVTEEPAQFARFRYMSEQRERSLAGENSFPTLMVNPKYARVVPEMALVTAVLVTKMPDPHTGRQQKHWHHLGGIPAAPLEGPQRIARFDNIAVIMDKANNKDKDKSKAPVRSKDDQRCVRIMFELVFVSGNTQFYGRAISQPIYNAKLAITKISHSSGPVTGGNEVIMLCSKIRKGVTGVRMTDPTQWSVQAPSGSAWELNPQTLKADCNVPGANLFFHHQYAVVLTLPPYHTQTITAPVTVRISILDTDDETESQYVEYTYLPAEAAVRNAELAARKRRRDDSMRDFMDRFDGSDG
Assay: protein-binding microarray (PBM); PBM: ~300 nM protein, 6 mM HEPES pH 7.8, 80 mM KCl, 0.5 mM EDTA, 0.5 mM EGTA, 6% glycerol, 35 ng/ul poly-dIdC, 1% milk, 1 h, room temperature; high values mean tight binding
Settings: dsDNA, one strand shown
Readout name: binding signal (z-score)

> print(dat)
                            monomer.sequence  numeric.result
 1  CCGATTAACATCAAAATATTCCCTGATGTTAATCGGGTCTTGATTCGCTTGACGCTGCTG            4.81
 2  CCGATTAACATCAGGGGAAAAACTGATGTTAATCGGGTCTTGATTCGCTTGACGCTGCTG            9.24
 3  CCGATTAACATCAAACTACCCCCTGATGTTAATCGGGTCTTGATTCGCTTGACGCTGCTG            5.82
 4  CCGATTAACATCAATCAGCGGGGTGATGTTAATCGGGTCTTGATTCGCTTGACGCTGCTG            2.43
 5  CCGATTAACATCAGAAATGGGAATGATGTTAATCGGGTCTTGATTCGCTTGACGCTGCTG            1.87
 6  CCGATTAACATCACGATTTCCCCTGATGTTAATCGGGTCTTGATTCGCTTGACGCTGCTG            8.64
 7  CCGATTAACATCAAGGGTATTCCTGATGTTAATCGGGTCTTGATTCGCTTGACGCTGCTG            1.17
 8  CCGATTAACATCAAAGGACCCCCTGATGTTAATCGGGTCTTGATTCGCTTGACGCTGCTG            2.19
 9  CCGATTAACATCAGGATGTTCCCTGATGTTAATCGGGTCTTGATTCGCTTGACGCTGCTG            1.42
10  CCGATTAACATCACCCGGCGCAGTGATGTTAATCGGGTCTTGATTCGCTTGACGCTGCTG             2.3
11  CCGATTAACATCAGGTATCCCCATGATGTTAATCGGGTCTTGATTCGCTTGACGCTGCTG            3.11
12  CCGATTAACATCAAAAAATCCCGTGATGTTAATCGGGTCTTGATTCGCTTGACGCTGCTG            2.99
13  CCGATTAACATCAGGGAGGGAAATGATGTTAATCGGGTCTTGATTCGCTTGACGCTGCTG            3.79
14  CCGATTAACATCAGGACACCCCATGATGTTAATCGGGTCTTGATTCGCTTGACGCTGCTG            1.49
15  CCGATTAACATCAGGACTGTCCCTGATGTTAATCGGGTCTTGATTCGCTTGACGCTGCTG            1.21
16  CCGATTAACATCAATGCCCCCCCTGATGTTAATCGGGTCTTGATTCGCTTGACGCTGCTG            5.03
17  CCGATTAACATCAGGGGGTTGACTGATGTTAATCGGGTCTTGATTCGCTTGACGCTGCTG            1.93
18  CCGATTAACATCAAAACCCCCCGTGATGTTAATCGGGTCTTGATTCGCTTGACGCTGCTG            5.04

---

Documented binding signal across a set of sequences
Target: GST-Co-NF-kB (Capsaspora owczarzaki, UniProt F1ARL5 200-546)
Sequence: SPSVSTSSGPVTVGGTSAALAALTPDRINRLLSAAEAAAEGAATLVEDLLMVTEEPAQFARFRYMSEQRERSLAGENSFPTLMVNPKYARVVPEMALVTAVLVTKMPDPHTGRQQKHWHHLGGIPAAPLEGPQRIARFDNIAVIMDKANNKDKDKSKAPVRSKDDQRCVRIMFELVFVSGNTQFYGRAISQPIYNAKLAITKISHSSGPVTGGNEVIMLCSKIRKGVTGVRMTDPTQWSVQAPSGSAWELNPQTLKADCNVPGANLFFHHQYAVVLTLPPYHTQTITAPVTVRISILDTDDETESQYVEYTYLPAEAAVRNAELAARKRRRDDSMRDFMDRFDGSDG
Assay: protein-binding microarray (PBM); PBM: ~300 nM protein, 6 mM HEPES pH 7.8, 80 mM KCl, 0.5 mM EDTA, 0.5 mM EGTA, 6% glycerol, 35 ng/ul poly-dIdC, 1% milk, 1 h, room temperature; high values mean tight binding
Conditions: dsDNA, one strand shown
Readout name: binding signal (z-score)

> print(dat)
                           monomer.sequence    readout.name  numeric.result
1  CCGATTAACATCAGGGGATTTACTGATGTTAATCGGGTCTTGATTCGCTTGACGCTGCTG  binding signal            3.45
2  CCGATTAACATCACTCCCCCCCATGATGTTAATCGGGTCTTGATTCGCTTGACGCTGCTG  binding signal            6.71
3  CCGATTAACATCAAGGGGTCCCCTGATGTTAATCGGGTCTTGATTCGCTTGACGCTGCTG  binding signal            1.66
4  CCGATTAACATCAAAAAGGGAAATGATGTTAATCGGGTCTTGATTCGCTTGACGCTGCTG  binding signal            1.33
5  CCGATTAACATCAGGGAACTTTATGATGTTAATCGGGTCTTGATTCGCTTGACGCTGCTG  binding signal            2.81
6  CCGATTAACATCAGGAGTGCCCCTGATGTTAATCGGGTCTTGATTCGCTTGACGCTGCTG  binding signal            1.41
7  CCGATTAACATCAGGGAACTCCATGATGTTAATCGGGTCTTGATTCGCTTGACGCTGCTG  binding signal             1.5
8  CCGATTAACATCAAATTCCCAGGTGATGTTAATCGGGTCTTGATTCGCTTGACGCTGCTG  binding signal            3.53
9  CCGATTAACATCACGGAAATTTCTGATGTTAATCGGGTCTTGATTCGCTTGACGCTGCTG  binding signal            1.12

---

Target: GST-Aq-NF-kB (Amphimedon queenslandica, UniProt A9Y5G7 2-389)
Sequence: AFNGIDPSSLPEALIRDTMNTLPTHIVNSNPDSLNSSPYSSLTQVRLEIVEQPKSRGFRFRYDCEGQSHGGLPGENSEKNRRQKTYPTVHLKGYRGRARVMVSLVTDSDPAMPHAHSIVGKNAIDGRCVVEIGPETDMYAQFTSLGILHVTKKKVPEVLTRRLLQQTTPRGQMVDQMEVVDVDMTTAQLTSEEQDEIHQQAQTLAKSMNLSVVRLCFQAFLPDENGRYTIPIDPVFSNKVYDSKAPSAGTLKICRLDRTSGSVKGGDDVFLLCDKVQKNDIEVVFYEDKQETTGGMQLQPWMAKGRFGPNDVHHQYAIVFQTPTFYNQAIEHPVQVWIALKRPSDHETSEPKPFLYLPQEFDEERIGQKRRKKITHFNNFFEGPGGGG
Experiment: protein-binding microarray (PBM); PBM: ~300 nM protein, 6 mM HEPES pH 7.8, 80 mM KCl, 0.5 mM EDTA, 0.5 mM EGTA, 6% glycerol, 35 ng/ul poly-dIdC, 1% milk, 1 h, room temperature; Ap Aiptasia and Nv Nematostella (sea anemones) / Co Capsaspora / Aq Amphimedon (sponge) / Dm Drosophila / Hu human; RHD is the Rel homology domain; high values mean tight binding
Settings: dsDNA, one strand shown
Documented binding signal across a set of sequences
Readout name: binding signal (z-score)

> print(dat)
                            monomer.sequence    readout.name  numeric.result
 1  CCGATTAACATCAAGATCCCTTGTGATGTTAATCGGGTCTTGATTCGCTTGACGCTGCTG  binding signal            1.08
 2  CCGATTAACATCAAAATTTTCCCTGATGTTAATCGGGTCTTGATTCGCTTGACGCTGCTG  binding signal            7.04
 3  CCGATTAACATCAGGACACCCCATGATGTTAATCGGGTCTTGATTCGCTTGACGCTGCTG  binding signal            1.61
 4  CCGATTAACATCACGGAATACCCTGATGTTAATCGGGTCTTGATTCGCTTGACGCTGCTG  binding signal            4.52
 5  CCGATTAACATCAGGGGAAAACCTGATGTTAATCGGGTCTTGATTCGCTTGACGCTGCTG  binding signal            9.77
 6  CCGATTAACATCAAAATTCCGGATGATGTTAATCGGGTCTTGATTCGCTTGACGCTGCTG  binding signal            1.54
 7  CCGATTAACATCAGCCCGGGAAATGATGTTAATCGGGTCTTGATTCGCTTGACGCTGCTG  binding signal            2.09
 8  CCGATTAACATCAGGAATATCCCTGATGTTAATCGGGTCTTGATTCGCTTGACGCTGCTG  binding signal            6.03
 9  CCGATTAACATCACCTCCCCCCCTGATGTTAATCGGGTCTTGATTCGCTTGACGCTGCTG  binding signal            3.93
10  CCGATTAACATCACCGAACCCCCTGATGTTAATCGGGTCTTGATTCGCTTGACGCTGCTG  binding signal            3.82
11  CCGATTAACATCAAAATTTCCGGTGATGTTAATCGGGTCTTGATTCGCTTGACGCTGCTG  binding signal            3.05
12  CCGATTAACATCAAAATCCCCCTTGATGTTAATCGGGTCTTGATTCGCTTGACGCTGCTG  binding signal            8.68
13  CCGATTAACATCAGGGGAAGATATGATGTTAATCGGGTCTTGATTCGCTTGACGCTGCTG  binding signal            6.09
14  CCGATTAACATCAGGGACAAAAATGATGTTAATCGGGTCTTGATTCGCTTGACGCTGCTG  binding signal            2.39
15  CCGATTAACATCACGGGATGTACTGATGTTAATCGGGTCTTGATTCGCTTGACGCTGCTG  binding signal            1.26
16  CCGATTAACATCATGGGGCATGCTGATGTTAATCGGGTCTTGATTCGCTTGACGCTGCTG  binding signal            1.06
17  CCGATTAACATCAGGGGGGAAGATGATGTTAATCGGGTCTTGATTCGCTTGACGCTGCTG  binding signal            4.85
18  CCGATTAACATCAGGCATTCCCCTGATGTTAATCGGGTCTTGATTCGCTTGACGCTGCTG  binding signal            7.93
